tested on: HEK293 cells overexpressing APOL1 G2; test: APOL1 G2 HEK293 cell rescue assay (reversal of cell death caused by overexpression of APOL1); type: cell-based; conditions: Homo sapiens, HEK293, HEK293 overexpressing APOL1 G2; geometric mean of at least 2 assay runs; † = single assay run

# compound, assay.target, readout.unit, EC50
rows = [
    ("CNC(=O)c1ccc(OCCN2CCC3(CC2)C(=O)Nc2ccc(Cl)cc23)cc1F", "HEK293 cells overexpressing APOL1 G2", "nM", 128),
    ("N#Cc1ccc2c(c1)C1(CCN(CCOc3ccc(C(N)=O)c(C(F)F)c3)CC1)C(=O)N2", "HEK293 cells overexpressing APOL1 G2", "nM", 49.2),
    ("C[C@]1(O)C[C@@H](n2cnc3cc(OCCN4CCC5(CC4)C(=O)Nc4ccc(Cl)cc45)cc(OC(F)F)c32)C1", "HEK293 cells overexpressing APOL1 G2", "nM", 34.1),
    ("CN1C(=O)CCc2cc(OCCN3CCC4(CC3)C(=O)Nc3ccc(Cl)cc34)ccc21", "HEK293 cells overexpressing APOL1 G2", "nM", 62),
    ("C[C@]1(O)C[C@H](n2ncc3cc(OCCN4CCC5(CC4)C(=O)Nc4ccc(Cl)cc45)cnc32)C1 (single isomer, unassigned)", "HEK293 cells overexpressing APOL1 G2", "nM", 23.1),
    ("[2H]C([2H])([2H])N1C(=O)C2(CCN(CCOc3cnc(C4(S(C)(=O)=O)COC4)nc3)CC2)c2cc(Cl)ccc21", "HEK293 cells overexpressing APOL1 G2", "nM", 63.5),
]

====

System: HEK293 clonal cell line overexpressing APOL1 G1
Test: APOL1 G1 HEK293 cell rescue assay (Example B3)
Type: cell-based
Conditions: Homo sapiens, HEK293, HEK293 clonal line overexpressing APOL1 G1; geometric mean of at least 2 runs; † = single run; ¥ = concentration at 50% rescue estimated (no sigmoidal curve)
Experimental: Compounds were also assayed in a HEK293 clonal cell line overexpressing APOL1 G1 by a method similar to that shown in Example B2 above. Unless otherwise specified, EC50 values are reported as the geometric mean of at least 2 assay runs on separate days. Each run represents the average of a technical replicate, where each compound was assayed twice in the same plate. […]
pEC50: −log10 of the molar value.

# molecule, pEC50
rows = [
    ("COCCN1C(=O)C2(CCN(CCOc3ccc(S(C)(=O)=O)cc3)CC2)c2cc(C#N)ccc21 [Compound 25]", "~5.08"),
    ("CN=S(C)(=O)c1ccc(OCCN2CCC3(CC2)C(=O)Nc2ccc(C#N)cc23)cc1 (single isomer, unassigned) [Compound 151]", "~5.60"),
    ("CNC(=O)C1(c2ccc(OCCN3CCC4(CC3)C(=O)Nc3ccc(C#N)cc34)cc2)COC1 [Compound 255]", "~5.54"),
]

====

This section presents compounds with their documented log10 EC50 values.
tested on: Trypanosoma brucei Lister 427 VSG221 with APOL1 G1 recombinant protein; test: APOL1 G1 trypanosome cell rescue assay (Example B5); assay type: cell-based; conditions: read-out: APOL1 G1 Trypanosome Rescue EC50; Trypanosoma brucei Lister 427 VSG221 with APOL1 G1 recombinant protein, 20 hours, CellTiter-Glo; geometric mean of at least 2 assay runs; † = single assay run
readout.kind: log10 EC50 (log10 of the value in nM)

# compound, observed
rows = [
    ("CC(O)c1ncc(OCCN2CCC3(CC2)C(=O)Nc2ccc(Cl)cc23)cc1C(F)(F)F (single isomer, unassigned) [Compound 292]", 1.60),
    ("CC1(O)CC(CN2C(=O)CCc3cc(OCCN4CCC5(CC4)C(=O)Nc4ccc(C(F)F)cc45)cnc32)C1 (single isomer, unassigned) [Compound 312]", 1.54),
    ("CC(O)c1ncc(OCCN2CCC3(CC2)C(=O)Nc2ccc(Cl)cc23)cc1C(F)(F)F (single isomer, unassigned) [Compound 291]", 1.90),
    ("CS(=O)(=O)C1(c2ccc(OCCN3CCC4(CC3)C(=O)Nc3ccc(Cl)cc34)cc2)CC(O)C1 (stereo not drawn) [Compound 270]", 1.91),
    ("CC1(O)CC(CN2C(=O)CCc3cc(OCCN4CCC5(CC4)C(=O)Nc4ccc(Cl)cc45)cnc32)C1 (single isomer, unassigned) [Compound 313]", 1.86),
    ("CN1C(=O)C2(CCN(CCOc3ccc(C4(S(C)(=O)=O)CC(O)C4)cc3)CC2)c2cc(C(F)F)ccc21 (single isomer, unassigned) [Compound 278]", 2.05),
    ("O=C1NCC2c3ccc(OCCN4CCC5(CC4)C(=O)Nc4ccc(Cl)cc45)cc3CCN12 (single isomer, unassigned) [Compound 117]", 2.63),
    ("CC(c1ncc(OCCN2CCC3(CC2)C(=O)Nc2ccc(Cl)cc23)cn1)S(C)(=O)=O (single isomer, unassigned) [Compound 3]", 2.51),
    ("CS(=O)(=O)C1(c2ccc(OCCN3CCC4(CC3)C(=O)Nc3ccc(Cl)cc34)cc2)CC(O)C1 (stereo not drawn) [Compound 269]", 2.44),
    ("CN1C(=O)C2(CCN(CCOc3ccc(C4(S(C)(=O)=O)CC(O)C4)cc3)CC2)c2cc(C(F)F)ccc21 (single isomer, unassigned) [Compound 279]", 2.45),
    ("CC1(O)CC(c2ncc(OCCN3CCC4(CC3)C(=O)Nc3ccc(Cl)cc34)cn2)C1 (single isomer, unassigned) [Compound 393]", 2.56),
    ("CN=S(C)(=O)c1ccc(OCCN2CCC3(CC2)C(=O)Nc2ccc(C#N)cc23)cc1 (single isomer, unassigned) [Compound 152]", 3.18),
    ("CC(O)c1ncc(OCCN2CCC3(CC2)C(=O)Nc2ccc(Cl)cc23)cn1 (single isomer, unassigned) [Compound 286]", 2.80),
    ("O=C1CCC2c3ccc(OCCN4CCC5(CC4)C(=O)Nc4ccc(Cl)cc45)cc3CCN12 (single isomer, unassigned) [Compound 123]", 2.41),
    ("CS(=O)(=O)C1(c2ccc(OCCN3CCC4(CC3)C(=O)Nc3ccc(Cl)cc34)cc2)CC(O)C1 (stereo not drawn) [Compound 268]", 2.08),
]

====

system: HEK293 clonal cell line overexpressing APOL1 G1; assay: APOL1 G1 HEK293 cell rescue assay (Example B3); format: cell-based; details: Homo sapiens, HEK293, HEK293 clonal line overexpressing APOL1 G1; geometric mean of at least 2 runs; † = single run; ¥ = concentration at 50% rescue estimated (no sigmoidal curve)

# compound, EC50
measured = [
    ("CC(O)c1ncc(OCCN2CCC3(CC2)C(=O)Nc2ccc(Cl)cc23)cn1 (single isomer, unassigned) [Compound 285]", "0.292 µM"),
    ("CS(=O)(=O)C1(c2ncc(OCCN3CCC4(CC3)C(=O)Nc3ccc(C(F)F)cc34)cn2)CC1", "0.295 µM"),
    ("CC1(S(=O)(=O)c2ccc(OCCN3CCC4(CC3)C(=O)Nc3ccc(Cl)cc34)cc2)COC1", "0.101 µM"),
]

====

System: HEK293 cells overexpressing APOL1 G2
Test: APOL1 G2 HEK293 cell rescue assay (reversal of cell death caused by overexpression of APOL1)
Type: cell-based
Details: Homo sapiens, HEK293, HEK293 overexpressing APOL1 G2; geometric mean of at least 2 assay runs; † = single assay run
Method: Unless otherwise specified, EC50 values are reported as the geometric mean of at least 2 assay runs on separate days. Each run represents the average of a technical replicate, where each compound was assayed twice in the same plate. A superscript t symbol indicates a value from the average of a technical replicate from a single assay run, where each compound was assayed twice in the same plate. […]
pEC50: −log10 of the molar value.
readout.kind: pEC50

# compound, readout.kind, observed
measured = [
    ("C[C@@H](COc1ccc2c(cnn2C)c1)N1CCC2(CC1)C(=O)Nc1ccc(Cl)cc12 (single isomer, unassigned) [Compound 211]", "pEC50", 6.86),
    ("CN1Cc2cc(OCCN3CCC4(CC3)C(=O)Nc3ccc(Cl)cc34)ccc2C1=O [Compound 146]", "pEC50", 6.92),
    ("CS(=O)(=O)C1(c2ccc(OCCN3CCC4(CC3)C(=O)N(CC(F)(F)F)c3ccc(Cl)cc34)cc2)COC1 [Compound 185]", "pEC50", 6.95),
    ("CS(=O)(=O)c1ccc(OCCN2CCC3(CC2)C(=O)Nc2ccc(Cl)cc23)cc1 [Compound 69]", "pEC50", 7.08),
    ("Cc1cc(OCCN2CCC3(CC2)C(=O)Nc2ccc(Cl)cc23)cnc1S(C)(=O)=O [Compound 161]", "pEC50", 7.33),
    ("O=C1Nc2ccc(Cl)cc2C12CCN(CCOc1cnc(CCO)nc1)CC2 [Compound 331]", "pEC50", 6.78),
    ("CCC1(O)CC(N2C(=O)CCc3cc(OCCN4CCC5(CC4)C(=O)Nc4ccc(Cl)cc45)cnc32)C1 (stereo not drawn) [Compound 318]", "pEC50", 7.63),
    ("[2H]C([2H])([2H])N1C(=O)C2(CCN(CCOc3cnc(C4(CO)CC4)nc3)CC2)c2cc(Cl)ccc21 [Compound 420]", "pEC50", 7.19),
    ("NC(=O)c1ccc(OCCN2CCC3(CC2)C(=O)Nc2ccc(Cl)cc23)cc1 [Compound 45]", "pEC50", 6.91),
    ("CC[C@]1(O)C[C@@H](N2C(=O)CCc3cc(OCCN4CCC5(CC4)C(=O)Nc4ccc(Cl)cc45)cnc32)C1 (single isomer, unassigned) [Compound 321]", "pEC50", 7.62),
    ("CS(=O)(=O)N(CCO)c1ccc(OCCN2CCC3(CC2)C(=O)Nc2ccc(Cl)cc23)cc1 [Compound 98]", "pEC50", 7.26),
    ("C[C@]1(O)C[C@@H](N2C(=O)NCc3cc(OCCN4CCC5(CC4)C(=O)Nc4ccc(Cl)cc45)cnc32)C1 [Compound 356]", "pEC50", 7.30),
    ("C[C@]1(O)C[C@@H](n2nnc3cc(OCCN4CCC5(CC4)C(=O)Nc4ccc(Cl)cc45)cc(C(F)(F)F)c32)C1 [Compound 434]", "pEC50", 7.95),
    ("CC(O)c1ncc(OCCN2CCC3(CC2)C(=O)Nc2ccc(C#N)cc23)cc1C(F)(F)F (single isomer, unassigned) [Compound 376]", "pEC50", 7.33),
    ("N#Cc1ccc2c(c1)C1(CCN(CCOc3ccc(C(N)=O)c(F)c3)CC1)C(=O)N2 [Compound 238]", "pEC50", 7.07),
    ("NC(=O)c1ccc(OCCN2CCC3(CC2)C(=O)Nc2ccc(Cl)cc23)cc1C(F)F [Compound 249]", "pEC50", 7.57),
    ("CC(c1ccc(OCCN2CCC3(CC2)C(=O)Nc2ccc(C#N)cc23)cc1)S(C)(=O)=O (stereo not drawn) [Compound 133]", "pEC50", 6.69),
    ("CS(=O)(=O)NC1CN(C(=O)c2ccc(OCCN3CCC4(CC3)C(=O)Nc3ccc(Cl)cc34)cc2F)C1 [Compound 237]", "pEC50", 6.62),
]
